molecular target: c-Met kinase domain recombinant protein (Homo sapiens, UniProt P08581); construct: 50 μL diluted solution of c-Met kinase domain recombinant protein in reaction buffer was added to initiate the reaction; assay: biochemical; conditions: read-out: Inhibition rate at 10 μM (%)
Sequence (P08581 1078-1345 limits assumed): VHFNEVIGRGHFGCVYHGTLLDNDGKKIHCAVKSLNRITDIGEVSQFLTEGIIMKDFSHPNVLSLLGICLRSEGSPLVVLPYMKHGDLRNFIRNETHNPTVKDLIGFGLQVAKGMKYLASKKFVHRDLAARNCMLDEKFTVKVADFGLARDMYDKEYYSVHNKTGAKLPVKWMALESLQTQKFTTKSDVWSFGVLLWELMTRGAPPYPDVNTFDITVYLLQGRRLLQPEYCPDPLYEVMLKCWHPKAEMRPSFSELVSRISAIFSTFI
Please respond with reported inhibition at 10 µM for every item in the list.
Give bare numbers, in %.

| smiles_repr | measurement_units | inhibition at 10 µM |
| --- | --- | --- |
| CC(C)(C)OC(=O)N1CCC(n2cc(-c3cnc4cnn(S(=O)(=O)c5cnc6cccnn56)c4c3)cn2)CC1 | % | 76.7 |

Give one value of inhibition at 10 µM per listed molecule.
1. O=S(=O)(c1cnc2ccc(C(F)(F)F)cn12)n1ncc2ncc(-c3cnn(C4CCNCC4)c3)cc21
2. Cn1cc(-c2cnc3cnn(S(=O)(=O)c4cnn5cccnc45)c3c2)cn1
3. Cn1cc(-c2cnc3cnn(S(=O)(=O)c4ccccc4F)c3c2)cn1
4. O=S(=O)(c1cnc2ccccn12)n1ncc2ncc(-c3ccc4c(c3)OCCO4)cc21
5. Cn1cc(-c2cnc3cnn(S(=O)(=O)c4cnc5cccnn45)c3c2)cn1

Ans:
1. 79.3
2. 69.5
3. 34.4
4. 66.3
5. 77.9

Q: Would you mind telling me what inhibition at 10 µM value was observed for O=S(=O)(c1cnc2ccccn12)n1ncc2ncc(-c3ccc4ccccc4c3)cc21 ?
Ans: 53.7

---

Molecular target: c-Met kinase domain recombinant protein (Homo sapiens, UniProt P08581)
Construct: 50 μL diluted solution of c-Met kinase domain recombinant protein in reaction buffer was added to initiate the reaction
Experiment: biochemical
Settings: read-out: Average inhibition rate at 0.1 μM (%)
Procedure: Enzymatic reaction substrate Poly(Glu,Tyr)4:1 was diluted to 20 μg/mL in potassium ion free PBS (10 mM sodium phosphate buffer, 150 mM NaCl, pH7.2-7.4), microplate was coated with this solution at 125 μL per well, and reacted at 37° C. for 12-16 hours. […] The plate was washed three times with T-PBS. […] Reaction was terminated by adding 50 μL per well of 2M H2SO4, the plate was read at 490 nm using a SPECTRA MAX 190 microplate reader with tunable wavelength. […]
Please respond with reported inhibition at 0.1 µM for every item in the list.
One number for each entry, in %.

Study these solved cases before continuing.
| smiles_repr | inhibition at 0.1 µM (%) |
| --- | --- |
| O=C(C1CC1)N1CCC(n2cc(-c3cnc4cnn(S(=O)(=O)c5cnc6ccccn56)c4c3)cn2)CC1 | 58.8 |
| CC(=O)N1CCC(n2cc(-c3cnc4cnn(S(=O)(=O)c5cnc6ccccn56)c4c3)cn2)CC1 | 55.9 |
| CC(C)(C)OC(=O)N1CCC(n2cc(-c3cnc4cnn(S(=O)(=O)c5cnn6cccnc56)c4c3)cn2)CC1 | 55.9 |
| CC(=O)c1ccc(S(=O)(=O)n2ncc3ncc(-c4cnn(C)c4)cc32)cc1 | 28.5 |
| O=S(=O)(c1cnc2ccccn12)n1ncc2ncc(-c3ccccc3)cc21 | 64.6 |

Give one value of inhibition at 0.1 µM per listed molecule.
1. O=S(=O)(c1cnc2ccccn12)n1ncc2ncc(-c3cccnc3)cc21
2. Cn1cc(-c2ccc3ncc(S(=O)(=O)n4ncc5ncc(-c6cn[nH]c6)cc54)n3c2)cn1
3. Cn1cc(-c2cnc3cnn(S(=O)(=O)c4cnc5ccc(C(F)(F)F)cn45)c3c2)cn1

Ans:
1: 48.3; 2: 104; 3: 60

Give one value of inhibition at 0.1 µM per listed molecule.
1. O=C(C1CCCC1)N1CCC(n2cc(-c3cnc4cnn(S(=O)(=O)c5cnc6ccccn56)c4c3)cn2)CC1
2. CS(=O)(=O)Nc1ccc(-c2cnc3cnn(S(=O)(=O)c4cnc5ccccn45)c3c2)cc1
3. Cn1cc(-c2cnc3cnn(S(=O)(=O)c4cnc5ccc(-c6cc(F)c(F)c(F)c6)cn45)c3c2)cn1

Ans:
1. 53.3
2. 31.3
3. 1.1

Give one value of inhibition at 0.1 µM per listed molecule.
1. COc1cccc(C(=O)Nc2cnc3cnn(S(=O)(=O)c4cnc5ccc(OC)cn45)c3c2)c1
2. Cn1cc(-c2cnc3cnn(S(=O)(=O)c4cnc5ccc(Cl)nn45)c3c2)cn1

Ans:
[66.8, 71.7]
